pIC50 values recorded for GST-tagged Tankyrase-2 (873-1166 aa) (Homo sapiens)
pIC50: −log10 of the molar value.

Quick one: pIC50 of `COc1ccc(N2CCN(c3nc4c(c(=O)[nH]3)CCCC4)CC2)cn1` ?
5.52 to 6.52

Quick one: pIC50 for `CC(C)(C)N1CCN(c2nc3c(c(=O)[nH]2)CCCC3)CC1` ?
5.52 to 6.52

Request the reported pIC50 associated with `COc1ccc(C2CCN(c3nc4c(c(=O)[nH]3)CCCC4)CC2)cc1`
5.52 to 6.52

Suppose we examine the compound `O=c1[nH]c(N2CCN(c3cccc(Cl)c3)CC2)nc2c1CCCC2` ; what pIC50 value has been reported?
5.52 to 6.52

Requested field: pIC50. Item: `COc1ccc(N2CCN(c3nc4c(c(=O)[nH]3)CCCC4)CC2)cc1`
5.52 to 6.52

Sample `CCOc1ccc(N2CCN(c3nc4c(c(=O)[nH]3)CCCC4)CC2)cc1` — what was its pIC50?
5.52 to 6.52

Name the reported pIC50 value associated with the compound `O=c1[nH]c(N2CCN(c3ccc(F)cc3Cl)CC2)nc2c1CCCC2`
5.52 to 6.52

Can you look up the measured pIC50 of `COc1ccc(N2CCN(c3nc4c(c(=O)[nH]3)CCCC4)CC2=O)cc1` for me?
4.30 to 5.52

Record request: pIC50 value, item `COc1ccccc1C1CCN(c2nc3c(c(=O)[nH]2)CCCC3)CC1`
5.52 to 6.52

Need pIC50, item `O=C(N1CCOCC1)N1CCN(c2nc3c(c(=O)[nH]2)CCCC3)CC1`
4.30 to 5.52

# pIC50 lookup, item `COc1ccc(N2CCN(c3nc4c(c(=O)[nH]3)CCCC4)CC2)c(OC)c1`
5.52 to 6.52

Dear colleague, I am looking for the recorded pIC50 of the following compound: `N#Cc1ccccc1N1CCN(c2nc3c(c(=O)[nH]2)CCCC3)CC1`
5.52 to 6.52

Any idea what pIC50 was measured for `O=c1[nH]c(N2CCN(c3cccc(O)n3)CC2)nc2c1CCCC2` ?
4.30 to 5.52

Data request, read-out pIC50, for `COc1cc(F)ccc1N1CCN(c2nc3c(c(=O)[nH]2)CCCC3)CC1`
5.52 to 6.52

Request the reported pIC50 associated with `O=c1[nH]c(N2CCN(c3ccc(Cl)cc3)CC2)nc2c1CCCC2`
5.52 to 6.52

Which value of pIC50 has been reported for `O=C(CN1CCN(c2nc3c(c(=O)[nH]2)CCCC3)CC1)Nc1ccccn1` in the records?
5.52 to 6.52

Quick one: pIC50 for `COc1ccc(C2(O)CCN(c3nc4c(c(=O)[nH]3)CCCC4)CC2)cc1` ?
5.52 to 6.52

Which pIC50 is reported for this compound? `O=c1[nH]c(N2CCN(c3ccccc3C(F)(F)F)CC2)nc2c1CCCC2`
5.52 to 6.52

----------
Reported pIC50 values, GST-tagged Tankyrase-2 (873-1166 aa) (Homo sapiens).
pIC50: −log10 of the molar value.

Tell me the measured pIC50 of `O=c1[nH]c(N2CCC(O)(c3ccccc3)CC2)nc2c1CCCC2` , please.
5.52 to 6.52

Using the record for `COc1ccccc1N1CCN(c2nc3c(c(=O)[nH]2)CCCC3)CC1` , report its pIC50.
5.52 to 6.52

Any idea what its pIC50 is? The compound is `O=c1[nH]c(N2CCN(CCO)CC2)nc2c1CCCC2`
4.30 to 5.52

Given `O=c1[nH]c(N2CCC(C(F)(F)F)CC2)nc2c1CCCC2` , state its recorded pIC50.
5.52 to 6.52

Returns the measured pIC50 for the input compound. Input: `O=c1[nH]c(N2CCN(c3cccc(F)c3)CC2)nc2c1CCCC2`
5.52 to 6.52

Entry under review: `COc1cccc(N2CCN(c3nc4c(c(=O)[nH]3)CCCC4)CC2)c1` . Reported pIC50?
5.52 to 6.52

Which value of pIC50 has been reported for `O=c1[nH]c(N2CCN(CCc3ccccn3)CC2)nc2c1CCCC2` in the records?
5.52 to 6.52

Which measured pIC50 value corresponds to `O=c1[nH]c(N2CCN(c3ccccc3Cl)CC2)nc2c1CCCC2` ?
5.52 to 6.52

Any idea what pIC50 was measured for `O=C(N1CCCCC1)N1CCN(c2nc3c(c(=O)[nH]2)CCCC3)CC1` ?
4.30 to 5.52

Requested field: pIC50. Item: `O=c1[nH]c(N2CCN(c3ccc(F)cc3)CC2)nc2c1CCCC2`
5.52 to 6.52

----------
Please respond with reported IC50 for every item in the list.
- Target Desc: GST-tagged Tankyrase-1 (1023-1327 aa) (Homo sapiens, UniProt O95271)
- Sequence (O95271 1023-1327): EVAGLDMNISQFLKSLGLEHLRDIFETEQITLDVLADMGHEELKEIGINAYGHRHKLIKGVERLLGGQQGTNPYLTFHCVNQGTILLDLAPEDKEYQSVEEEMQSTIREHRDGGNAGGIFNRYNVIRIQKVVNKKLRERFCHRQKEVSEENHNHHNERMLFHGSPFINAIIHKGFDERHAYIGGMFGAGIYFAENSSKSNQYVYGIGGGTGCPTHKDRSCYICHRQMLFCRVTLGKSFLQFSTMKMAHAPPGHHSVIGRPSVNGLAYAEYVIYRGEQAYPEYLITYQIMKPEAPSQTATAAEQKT

What value of IC50 has been reported for the following compound? `O=c1[nH]c(N2CCN(c3cccc(Cl)c3)CC2)nc2c1CCCC2`
300 to 3000 nM

Consider the compound `CC(C)(C)N1CCN(c2nc3c(c(=O)[nH]2)CCCC3)CC1` and give its measured IC50.
300 to 3000 nM

Return reported IC50; argument: `NC(=O)c1ccccc1N1CCN(c2nc3c(c(=O)[nH]2)CCCC3)CC1`
< 300 nM

Using the record for `COc1ccc(N2CCN(c3nc4c(c(=O)[nH]3)CCCC4)CC2)c(OC)c1` , report its IC50.
300 to 3000 nM

Quick check: IC50 of `O=c1[nH]c(N2CCN(c3cccc(O)n3)CC2)nc2c1CCCC2` ?
3000 to 50000 nM

Which IC50 is listed for `O=c1[nH]c(N2CCN(c3ccc(F)cc3Cl)CC2)nc2c1CCCC2` ?
300 to 3000 nM

What does the data say about its IC50? Entry: `COc1ccc(C2CCN(c3nc4c(c(=O)[nH]3)CCCC4)CC2)cc1`
< 300 nM

Item `COc1cc(F)ccc1N1CCN(c2nc3c(c(=O)[nH]2)CCCC3)CC1` has what recorded IC50?
< 300 nM

Name the recorded IC50 for `COc1ccc(N2CCN(c3nc4c(c(=O)[nH]3)CCCC4)CC2)cc1` .
300 to 3000 nM

Look up IC50: `O=c1[nH]c(N2CCN(c3ccc(Cl)cc3)CC2)nc2c1CCCC2`
300 to 3000 nM

Using the record for `O=C(CN1CCN(c2nc3c(c(=O)[nH]2)CCCC3)CC1)Nc1ccccn1` , report its IC50.
300 to 3000 nM

IC50 for `O=c1[nH]c(N2CCN(c3ccccc3Cl)CC2)nc2c1CCCC2` ?
< 300 nM

What IC50 value was documented for this compound, `O=c1[nH]c(N2CCN(CCc3ccccn3)CC2)nc2c1CCCC2` ?
300 to 3000 nM

Sample `COc1cccc(N2CCN(c3nc4c(c(=O)[nH]3)CCCC4)CC2)c1` — what was its IC50?
< 300 nM

// lookup IC50 for `O=C(c1ccccc1)N1CCN(c2nc3c(c(=O)[nH]2)CCCC3)CC1`
3000 to 50000 nM

What does the data say about its IC50? Entry: `COc1ccccc1N1CCN(c2nc3c(c(=O)[nH]2)CCCC3)CC1`
< 300 nM

For `O=c1[nH]c(N2CCN(c3cccc(F)c3)CC2)nc2c1CCCC2` , what is its reported IC50?
300 to 3000 nM

Data request, read-out IC50, for `COc1ccc(N2CCN(c3nc4c(c(=O)[nH]3)CCCC4)CC2)cn1`
300 to 3000 nM

Form field: reported IC50 of `O=c1[nH]c(N2CCN(c3ccccc3C(F)(F)F)CC2)nc2c1CCCC2`
< 300 nM

What does the data say about its IC50? Entry: `O=C(N1CCOCC1)N1CCN(c2nc3c(c(=O)[nH]2)CCCC3)CC1`
3000 to 50000 nM

IC50 for `COc1ccc(C2(O)CCN(c3nc4c(c(=O)[nH]3)CCCC4)CC2)cc1` ?
300 to 3000 nM

Name the recorded IC50 for `N#Cc1ccccc1N1CCN(c2nc3c(c(=O)[nH]2)CCCC3)CC1` .
< 300 nM

----------
Give EC50 for every item shown.
- Test system: tankyrase 1/2
- Assay Text: Measurement of cellular inhibition of tankyrase (Axin2 level, Luminex based assay, DLD1 cells)
- Assay Context: 24 hours, increase of Axin2 level, read-out: EC50 tankyrase 1/2 (cell assay)

Data request, read-out EC50, for `O=C(N1CCCCC1)N1CCN(c2nc3c(c(=O)[nH]2)CCCC3)CC1`
3 to 50 µM

Returns the measured EC50 for the input compound. Input: `COc1ccccc1N1CCN(c2nc3c(c(=O)[nH]2)CCCC3)CC1`
0.3 to 3 µM

Tell me the measured EC50 of `O=c1[nH]c(N2CCN(c3cccc(O)n3)CC2)nc2c1CCCC2` , please.
3 to 50 µM

Request the reported EC50 associated with `COc1ccc(N2CCN(c3nc4c(c(=O)[nH]3)CCCC4)CC2)c(OC)c1`
0.3 to 3 µM

I have this compound here, `COc1ccccc1C1CCN(c2nc3c(c(=O)[nH]2)CCCC3)CC1` , and I need its recorded EC50.
0.3 to 3 µM

Field request: EC50 | item: `O=C(CN1CCN(c2nc3c(c(=O)[nH]2)CCCC3)CC1)Nc1ccccn1`
3 to 50 µM

Which value of EC50 has been reported for `COc1ccc(C2CCN(c3nc4c(c(=O)[nH]3)CCCC4)CC2)cc1` in the records?
3 to 50 µM

Quick one: EC50 for `COc1ccc(N2CCN(c3nc4c(c(=O)[nH]3)CCCC4)CC2=O)cc1` ?
3 to 50 µM

State the recorded EC50 for this entry: `COc1ccc(C2(O)CCN(c3nc4c(c(=O)[nH]3)CCCC4)CC2)cc1`
0.3 to 3 µM

Param item = `O=c1[nH]c(N2CCC(O)(c3ccccc3)CC2)nc2c1CCCC2` ; retrieve measured EC50.
0.3 to 3 µM

State the recorded EC50 for this entry: `COc1cc(F)ccc1N1CCN(c2nc3c(c(=O)[nH]2)CCCC3)CC1`
0.3 to 3 µM

State the recorded EC50 for this entry: `O=c1[nH]c(N2CCN(c3ccc(F)cc3)CC2)nc2c1CCCC2`
0.3 to 3 µM

I have this compound here, `O=c1[nH]c(N2CCN(c3cccc(Cl)c3)CC2)nc2c1CCCC2` , and I need its recorded EC50.
0.3 to 3 µM

What value of measured EC50 is listed for `COc1ccc(N2CCN(c3nc4c(c(=O)[nH]3)CCCC4)CC2)cn1` ?
0.3 to 3 µM

Find the recorded EC50 belonging to `O=c1[nH]c(N2CCC(C(F)(F)F)CC2)nc2c1CCCC2` and report it.
3 to 50 µM

Request the reported EC50 associated with `O=c1[nH]c(N2CCN(c3ccc(F)cc3Cl)CC2)nc2c1CCCC2`
0.3 to 3 µM
